# merged literature set: pKi with Serine/threonine-protein kinase PAK 4 (Homo sapiens, UniProt O96013)
# Sequence (O96013 whole entry): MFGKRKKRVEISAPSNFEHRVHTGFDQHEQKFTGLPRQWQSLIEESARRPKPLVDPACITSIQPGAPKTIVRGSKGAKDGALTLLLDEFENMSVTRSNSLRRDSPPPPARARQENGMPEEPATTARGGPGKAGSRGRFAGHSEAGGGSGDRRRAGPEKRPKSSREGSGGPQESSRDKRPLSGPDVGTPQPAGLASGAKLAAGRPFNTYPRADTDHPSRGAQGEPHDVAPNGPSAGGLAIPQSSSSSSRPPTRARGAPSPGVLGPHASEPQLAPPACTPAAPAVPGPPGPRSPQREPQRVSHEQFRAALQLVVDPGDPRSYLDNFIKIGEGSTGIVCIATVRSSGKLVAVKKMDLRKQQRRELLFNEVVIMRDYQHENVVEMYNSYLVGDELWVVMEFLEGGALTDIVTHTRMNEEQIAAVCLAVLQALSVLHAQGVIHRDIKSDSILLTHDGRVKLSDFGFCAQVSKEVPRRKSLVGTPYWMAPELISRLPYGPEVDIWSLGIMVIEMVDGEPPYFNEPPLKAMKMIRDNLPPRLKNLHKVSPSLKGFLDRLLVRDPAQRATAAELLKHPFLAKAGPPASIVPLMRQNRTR
Scale note: pKi = -log10(concentration in M).

[ask] Param readout = pKi; param system = Serine/threonine-protein kinase PAK 4 (Homo sapiens, UniProt O96013); param query = Cc1cc(Nc2nc(C(=O)N3CCN[C@@H](C)C3)nc3ccc(Cl)cc23)n[nH]1 ; response: value
[reply] 6.51

[ask] Param readout = pKi; param system = Serine/threonine-protein kinase PAK 4 (Homo sapiens, UniProt O96013); param query = CN(C)C[C@@H](NC(=O)c1ccc2[nH]nc(-c3nc4ccc(NCc5ccc(-c6ccccn6)cc5)cc4[nH]3)c2c1)c1ccccc1 ; response: value
[reply] 8.55

[ask] Param readout = pKi; param system = Serine/threonine-protein kinase PAK 4 (Homo sapiens, UniProt O96013); param query = CN(C)C[C@@H](OC(=O)N1Cc2c(NC(=O)c3ccc(F)cc3)n[nH]c2C1(C)C)c1ccccc1 ; response: value
[reply] 7.89

[ask] Param readout = pKi; param system = Serine/threonine-protein kinase PAK 4 (Homo sapiens, UniProt O96013); param query = CN(C)C[C@@H](NC(=O)c1ccc2[nH]nc(-c3nc4ccccc4[nH]3)c2c1)c1ccccc1 ; response: value
[reply] 8.22

[ask] Param readout = pKi; param system = Serine/threonine-protein kinase PAK 4 (Homo sapiens, UniProt O96013); param query = CC[C@@H]1CN(C(=O)c2nc(Nc3cc(C4CC4)[nH]n3)c3cc(Cl)ccc3n2)CCN1 ; response: value
[reply] 8.22

[ask] Param readout = pKi; param system = Serine/threonine-protein kinase PAK 4 (Homo sapiens, UniProt O96013); param query = Clc1cccc(Cn2cc(-c3ccc4[nH]ncc4c3)nn2)c1Cl ; response: value
[reply] 4.17

----------
# merged literature set: pKi with Serine/threonine-protein kinase PAK 4 (Homo sapiens)
Scale note: pKi = -log10(concentration in M).

Example entries and their recorded answers appear below.
MOLECULE	EXPERIMENTAL SYSTEM	pKi
CN(C)C[C@@H](NC(=O)N1Cc2c(NC(=O)c3ccccc3)n[nH]c2C1(C)C)c1ccccc1	Serine/threonine-protein kinase PAK 4 (Homo sapiens)	7.52
Cn1cnc(Nc2nc(N3CCC(N)CC3)nc3ccc(Cl)cc23)c1	Serine/threonine-protein kinase PAK 4 (Homo sapiens)	6.15

[ask] For the molecule shown here, C[C@H]1CN(C)C(=O)[C@@H]1c1cc(Nc2ccnc(N(C)C[C@H]3CC[C@H](N)CC3)n2)n[nH]1 , give the reported pKi.
[reply] 5.99

[ask] For the molecule shown here, Clc1c(CNc2nccc(Nc3cc(C4CCCO4)[nH]n3)n2)ccc2[nH]cnc12 (racemic) , give the reported pKi.
[reply] 5.89

[ask] For the molecule shown here, CN1CC[C@H](c2cc(Nc3ccnc(N(C)C[C@H]4CC[C@H](N)CC4)n3)n[nH]2)C1=O , give the reported pKi.
[reply] 6.46

[ask] For the molecule shown here, CN(Cc1ccc2[nH]cnc2c1Cl)c1nccc(Nc2cc(C3CCC(=O)C3)[nH]n2)n1 (racemic) , give the reported pKi.
[reply] 6.20

[ask] For the molecule shown here, CN1CC[C@H](c2cc(Nc3ccnc(N(C)Cc4ccc5[nH]cnc5c4Cl)n3)n[nH]2)C1=O , give the reported pKi.
[reply] 6.02

[ask] For the molecule shown here, NC1CCN(c2nc(Nc3cn(-c4ccccc4)cn3)c3cc(Cl)ccc3n2)CC1 , give the reported pKi.
[reply] 5.84

[ask] For the molecule shown here, Nc1n[nH]c2ccc(-c3cc(Cc4ccccc4)no3)cc12 , give the reported pKi.
[reply] 5.45

[ask] For the molecule shown here, Cc1cc(Nc2nc(C(=O)N(C)C3CCNCC3)nc3ccc(Cl)cc23)n[nH]1 , give the reported pKi.
[reply] 6.24

[ask] For the molecule shown here, Cc1cc(Nc2nc(C(=O)N3CCC(C)(O)CC3)nc3ccc(Cl)cc23)n[nH]1 , give the reported pKi.
[reply] 5.41

[ask] For the molecule shown here, Cc1cc(Nc2nc(C(=O)N3CCNCC3)nc3ccc(Cl)cc23)n[nH]1 , give the reported pKi.
[reply] 7.35

[ask] For the molecule shown here, Cc1cc(Nc2nc(C(=O)N3CCNC(=O)C3)nc3ccc(Cl)cc23)n[nH]1 , give the reported pKi.
[reply] 5.62

[ask] For the molecule shown here, O=C(c1nc(Nc2cc(C3CC3)[nH]n2)c2cc(Cl)ccc2n1)N1CCNCC1 , give the reported pKi.
[reply] 7.80
